system.tested: human A2A adenosine receptor (Homo sapiens, UniProt P29274)
Construct: expressed in transfected cells; host or cells: HEK293 or CHO cells
Sequence (P29274 whole entry): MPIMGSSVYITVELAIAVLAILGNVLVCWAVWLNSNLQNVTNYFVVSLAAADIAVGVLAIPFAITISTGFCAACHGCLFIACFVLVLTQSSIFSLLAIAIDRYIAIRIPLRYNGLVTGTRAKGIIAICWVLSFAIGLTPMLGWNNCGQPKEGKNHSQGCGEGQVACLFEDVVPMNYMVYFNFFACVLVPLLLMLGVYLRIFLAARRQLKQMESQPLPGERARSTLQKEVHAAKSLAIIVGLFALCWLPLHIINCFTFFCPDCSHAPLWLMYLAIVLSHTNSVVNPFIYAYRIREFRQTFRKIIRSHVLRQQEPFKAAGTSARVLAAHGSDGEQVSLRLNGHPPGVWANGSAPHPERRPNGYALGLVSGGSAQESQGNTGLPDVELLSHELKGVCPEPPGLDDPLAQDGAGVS
assay.remarks: A2A binding affinity, Method (B): scintillation proximity assay (SPA) with [3H]SCH58261
stated.conditions: membranes of HEK293 or CHO cells expressing the human receptor
measured.parameter: IC50 (nM)

Solved cases (5 shown):
INSERT INTO assay_data (compound, reading) VALUES
  ('COc1cccc2c1nc(N)n1nc(CC(=O)N[C@H]3CCOc4cc(F)ccc43)nc21', 6.7),
  ('COc1cccc2c1nc(N)n1nc(CNCCc3ccc(C(F)(F)F)cc3)nc21', 17.3),
  ('COc1cccc2c1nc(N)n1nc(CN[C@H](C)c3ccc(C(F)(F)F)cc3)nc21', 22.4),
  ('COc1cccc2c1nc(N)n1nc(CCNCc3ccc(C(F)(F)F)cc3)nc21', 16.7),
  ('COc1cccc2c1nc(N)n1nc(CN(CC(C)F)CC(C)F)nc21 (centres unmarked)', 3.3);

[a] CCN(Cc1ccc(C(F)(F)F)cc1)Cc1nc2c3cccc(OC)c3nc(N)n2n1
[b] COc1cccc2c1nc(N)n1nc(CN(Cc3ccc(C(F)(F)F)cc3)C(=O)NC(C)C)nc21
Query: a or b : whose IC50 is greater? Lab log: write the label of the selected item as the result.
Result: b
(b: 50.7 nM, a: 3.2 nM)

[I] COc1cccc2c1nc(N)n1nc(CN(Cc3ccnc4[nH]ccc34)CC3CC3)nc21
[II] COc1cccc2c1nc(N)n1nc(CN(Cc3cccc4ncccc34)CC3CC3)nc21
[III] COc1cccc2c1nc(N)n1nc(CN[C@H](C)C3CC3)nc21
Query: Put the items in order so that reported IC50 rises from first to last. // format: requested-order list of labels
Result: I, II, III
(I: 2.3 nM, II: 3.5 nM, III: 12 nM)

[1] COc1cccc2c1nc(N)n1nc(CN(Cc3ccc(OC(F)(F)F)cc3)CC3CCC3)nc21
[2] COc1cccc2c1nc(N)n1nc(CNC(C)(C)C(F)(F)F)nc21
[3] COc1cccc2c1nc(N)n1nc(CN(Cc3ccc(C(F)(F)F)cc3)C3CC3)nc21
Query: Hey, quick one: sort these by IC50, largest value first please. // format: requested-order list of labels
Result: 1, 2, 3
(1: 8.5 nM, 2: 4.8 nM, 3: 2.5 nM)

[A] COc1ccc(CN(Cc2nc3c4cccc(OC)c4nc(N)n3n2)CC2CC2)cc1
[B] COc1cccc2c1nc(N)n1nc(CN(Cc3ccc(OC(F)(F)F)cc3)S(=O)(=O)C(F)(F)F)nc21
[C] COc1cccc2c1nc(N)n1nc(CN[C@H](C)C(F)(F)F)nc21
Query: Hey, quick one: sort these by IC50, largest value first please. // format: requested-order list of labels
Result: B, A, C
(B: 50.4 nM, A: 7.2 nM, C: 3.9 nM)
